These measurements were taken from ChEMBL document CHEMBL1221392.

tested on: MDA-MB-468; assay: Cytotoxicity against human MDA-MB-468 cells after 5 days by SRB assay; conditions: MDA-MB-468, 5 days
ENDPOINT_NAME: log10(EC50) (log10 of the value in nM)

{"columns": ["SMILES_ENTRY", "log10(EC50)"],
 "data": [
  ["CN1C2CCC1/C(=C\\c1ccncc1)C(=O)/C2=C/c1ccncc1", 2.78],
  ["COc1cc(/C=C/C(=O)CC(=O)/C=C/c2ccc(O)c(OC)c2)ccc1O", 3.99],
  ["CN1C/C(=C\\c2ccncc2)C(=O)/C(=C/c2ccncc2)C1", 2.70],
  ["COc1cc(/C=C2\\CN(C)C/C(=C\\c3cc(OC)c(OC)c(OC)c3)C2=O)cc(OC)c1OC", 2.48],
  ["COc1ccc(OC)c(/C=C2\\CN(C)C/C(=C\\c3cc(OC)ccc3OC)C2=O)c1", 3.04],
  ["O=C1/C(=C/c2ccncc2)CCC/C1=C\\c1ccncc1", 3.28]
]}
